- ASSAYED TARGET: UniProt:P34972
pKi: −log10 of the molar value.

# STRUCTURE AS SMILES, pKi
rows = [
    ("Fc1cncc(F)c1-c1nc2cccc(OCC[18F])n2c1Nc1ccc2c(c1)OCCO2", 7.40),
]

====

- ASSAYED TARGET: human CB2 (Homo sapiens)
- Construct: expressed in transfected cells; host or cells: HEK-293T (transient transfection, membrane preparation)
- TEST: CB2 receptor binding assay, block of [3H]-CP 55,940 binding
- REPORTED CONDITIONS: membranes of HEK-293T cells transfected with human CB2 cDNA; 1.5 nM [3H]-CP 55,940

# STRUCTURE AS SMILES, ASSAYED TARGET, pKi
records = [
    ("Cc1cc(O)cc(C)c1-c1nc2cccc(OCCF)n2c1Nc1ccc2c(c1)OCCO2", "human CB2 (Homo sapiens)", 7.9),
    ("COc1cc(O)ccc1-c1nc2c(C)cccn2c1Nc1ccc2c(c1)OCCO2", "human CB2 (Homo sapiens)", 6.4),
    ("Fc1ccc2nc(-c3c(F)cccc3Cl)c(Nc3ccc4c(c3)OCCO4)n2c1", "human CB2 (Homo sapiens)", 7.5),
    ("COc1cccc(OC)c1-c1nc2ncccn2c1Nc1ccc2c(c1)OCCO2", "human CB2 (Homo sapiens)", 6.0),
    ("COc1cccc2nc(-c3c(F)ccc(OCCF)c3F)c(Nc3ccc4c(c3)OCCO4)n12", "human CB2 (Homo sapiens)", 8.8),
]

====

The following compounds are listed with their measured pKi values.
- ASSAYED TARGET: human CB2 (Homo sapiens, UniProt P34972)
- Construct: expressed in transfected cells; host or cells: HEK-293T (transient transfection, membrane preparation)
- Sequence (P34972 whole entry): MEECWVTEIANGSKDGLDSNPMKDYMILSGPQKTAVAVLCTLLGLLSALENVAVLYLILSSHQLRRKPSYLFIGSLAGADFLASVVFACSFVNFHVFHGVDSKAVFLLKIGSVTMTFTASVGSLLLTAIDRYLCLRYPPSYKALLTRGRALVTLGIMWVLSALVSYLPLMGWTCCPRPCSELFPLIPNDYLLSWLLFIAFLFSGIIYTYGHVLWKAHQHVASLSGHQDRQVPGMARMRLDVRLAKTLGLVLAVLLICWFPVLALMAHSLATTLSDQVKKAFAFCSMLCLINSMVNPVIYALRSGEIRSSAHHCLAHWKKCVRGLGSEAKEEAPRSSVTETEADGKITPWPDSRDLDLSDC
- TEST: CB2 receptor binding assay, block of [3H]-CP 55,940 binding
- REPORTED CONDITIONS: membranes of HEK-293T cells transfected with human CB2 cDNA; 1.5 nM [3H]-CP 55,940
QUANTITY KIND: pKi

# STRUCTURE AS SMILES, ASSAYED TARGET, REPORTED VALUE
data = [
    ("Cc1cccn2c(Nc3ccc4c(c3)OCCO4)c(-c3ccccn3)nc12", "human CB2 (Homo sapiens, UniProt P34972)", 6.5),
    ("Cc1cccc2nc(-c3c(F)cncc3F)c(Nc3ccc4c(c3)OCCO4)n12", "human CB2 (Homo sapiens, UniProt P34972)", 7.3),
    ("Cc1cccc2nc(-c3ncccc3F)c(Nc3ccc4c(c3)OCCO4)n12", "human CB2 (Homo sapiens, UniProt P34972)", 7.2),
    ("Cc1cn2c(Nc3ccc4c(c3)OCCO4)c(-c3c(F)cccc3Cl)nc2cn1", "human CB2 (Homo sapiens, UniProt P34972)", 6.7),
    ("COc1cccc2nc(-c3c(Cl)ccc(OCF)c3F)c(Nc3ccc4c(c3)OCCO4)n12", "human CB2 (Homo sapiens, UniProt P34972)", 9.2),
    ("COc1cc(O)ccc1-c1nc2ccccn2c1Nc1ccc2c(c1)OCCO2", "human CB2 (Homo sapiens, UniProt P34972)", 6.7),
    ("Cc1ccn2c(Nc3ccc4c(c3)OCCO4)c(-c3ccc(F)nc3)nc2c1", "human CB2 (Homo sapiens, UniProt P34972)", 5.2),
    ("Fc1ncccc1-c1nc2cnccn2c1Nc1ccc2c(c1)OCCO2", "human CB2 (Homo sapiens, UniProt P34972)", 5.4),
    ("Cc1cccc2nc(-c3c(F)cc(OCCF)cc3F)c(Nc3ccc4c(c3)OCCO4)n12", "human CB2 (Homo sapiens, UniProt P34972)", 7.9),
    ("COc1cccc2nc(-c3c(F)cc(OCCF)cc3F)c(Nc3ccc4c(c3)OCCO4)n12", "human CB2 (Homo sapiens, UniProt P34972)", 8.5),
    ("COc1cccc(F)c1-c1nc2cnccn2c1Nc1ccc2c(c1)OCCO2", "human CB2 (Homo sapiens, UniProt P34972)", 5.9),
    ("COc1cc(O)ccc1-c1nc2ncccn2c1Nc1ccc2c(c1)OCCO2", "human CB2 (Homo sapiens, UniProt P34972)", 6.3),
    ("COc1cccc(OC)c1-c1nc2cnccn2c1Nc1ccc2c(c1)OCCO2", "human CB2 (Homo sapiens, UniProt P34972)", 5.8),
    ("COc1ccc2nc(-c3c(F)cccc3Cl)c(Nc3ccc4c(c3)OCCO4)n2c1Cl", "human CB2 (Homo sapiens, UniProt P34972)", 7.4),
    ("c1ccc(-c2nc3ncccn3c2Nc2ccc3c(c2)OCCO3)nc1", "human CB2 (Homo sapiens, UniProt P34972)", 6.2),
    ("Cc1cccc2nc(-c3c(F)cccc3Cl)c(Nc3ccc4c(c3)OCCO4)n12", "human CB2 (Homo sapiens, UniProt P34972)", 8.0),
    ("COc1cc(O)ccc1-c1nc2ccncn2c1Nc1ccc2c(c1)OCCO2", "human CB2 (Homo sapiens, UniProt P34972)", 5.9),
    ("COc1cc(-c2nc3ccccn3c2Nc2ccc3c(c2)OCCO3)ccc1O", "human CB2 (Homo sapiens, UniProt P34972)", 6.8),
    ("Cc1cccn2c(Nc3ccc4c(c3)OCCO4)c(-c3c(F)cccc3Cl)nc12", "human CB2 (Homo sapiens, UniProt P34972)", 7.3),
]
